# Read-out: Urokinase-type plasminogen activator receptor (uPAR), PLAUR (gene 5329)
# test: BSK_CASM3C_uPAR: BioMAP Diversity Plus: CASM3C Assay for Urokinase-type plasminogen activator receptor (uPAR) Biomarker Activity (AID 2283054);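 also: cell-surface uPAR protein level quantified by ELISA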
# study.conditions: primary human coronary artery smooth muscle cells; actives raise or lower the signal
The source made the active and inactive calls. The calls were made as follows: active = hit-call score of the fitted dose curve at least 0.9, where 1 is the maximum; inactive = score below 0.9.
Respond with a class label; see active, inactive

Previously resolved entries follow.
compound: O=C1OC(=O)C2C3C=CC(C3)C12 (stereo not drawn)
assigned.category: inactive
--
compound: CC(C)CCCCCCOC(=O)c1ccc(C(=O)OCCCCCCC(C)C)c(C(=O)OCCCCCCC(C)C)c1
assigned.category: inactive
--
compound: CCOCCO
assigned.category: inactive
--
compound: CCC(C)(C)C(=O)O[C@H]1C[C@@H](C)C=C2C=C[C@H](C)[C@H](CC[C@@H]3C[C@@H](O)CC(=O)O3)[C@H]21
assigned.category: active
--
compound: CCCCCCc1ccc(O)cc1O
assigned.category: inactive
--
compound: CC(C)c1cccc(C(C)C)c1N1C(=O)c2ccc(O)cc2C1=O
assigned.category: active
--
compound: Cn1cnc([N+](=O)[O-])c1Sc1ncnc2nc[nH]c12
assigned.category: inactive
--
compound: Oc1ccc2c(c1)-c1ccccc1C2
assigned.category: inactive

Q: Please share the test call associated with CCCN(C1CCN(C(=O)C2CCNCC2)CC1)[C@@H]1CCc2ccc(OC)cc2C1 .
Ans: inactive

* * *

# test: ACEA_AR_antagonist_AUC_viability: ACEA Biosciences xCELLigence Real-Time Cell Analysis on Androgen Receptor Antagonism for Viability (AID 2283776);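 also: 22Rv1 human prostate cancer cells growing on impedance electrode plates; area under impedance growth curve at 80 h after dosing as viability; hits lower the growth signal relative to DMSO meaning cytotoxicity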
Results filed as inconclusive are left out. Calls of active or inactive are those of the source. The calls were made as follows: active = hit-call score of the fitted dose curve at least 0.9, where 1 is the maximum; inconclusive = response in the unintended direction; inactive = score below 0.9.
Respond with a class label; see active, inactive

compound: Nc1nc2ncc(CNc3ccc(C(=O)N[C@@H](CCC(=O)O)C(=O)O)cc3)nc2c(=O)[nH]1
assigned.category: inactive
//
compound: O=P(OC(CCl)CCl)(OC(CCl)CCl)OC(CCl)CCl
assigned.category: active

Q: Please share the test call associated with CCOc1cccc(-n2cc(C(=O)N3CCN(c4cc(C(=O)O)c5ccccc5c4)CC3)nc2-c2ccc(C)cc2)c1 .
Ans: active

Q: Please share the test call associated with COCCOCCOCCOC .
Ans: active

Q: Please share the test call associated with O=C(O)c1cccc(N(Cc2cccnc2)c2ccc(OC(F)F)c(OC(F)F)c2)c1 .
Ans: active

Q: Please share the test call associated with O=C(O)c1cc(N=Nc2ccc(S(=O)(=O)Nc3ccccn3)cc2)ccc1O .
Ans: inactive

Q: Please share the test call associated with CCOCCOCCOCCO .
Ans: inactive

Q: Please share the test call associated with Cc1ccc(C)c(O)c1 .
Ans: inactive

Q: Please share the test call associated with O=C(O)CC(O)C(=O)O (configuration not stated) .
Ans: inactive

Q: Please share the test call associated with COc1ccc2sc(C(=O)Nc3nnn[nH]3)c(OC(C)C)c2c1 .
Ans: active

Q: Please share the test call associated with COc1ccc(/C=C/S(=O)(=O)NC(=O)c2ccc(C)cc2Cl)cc1 .
Ans: active

Q: Please share the test call associated with C1N2CN3CN1CN(C2)C3 .
Ans: inactive

* * *

# test: CEETOX_H295R_DOC: CeeTox H295R High-throughput Steroidogenesis Assay for DOC (AID 2283439)
# study.conditions: actives raise or lower the signal
Active and inactive are the calls of the source. The calls were made as follows: active = hit-call score of the fitted dose curve at least 0.9, where 1 is the maximum; inactive = score below 0.9.
Respond with a class label; see yes (1) (active), no (0) (inactive)

Previously resolved entries follow.
molecule: CC(C)CC(C)(O)C#CC(C)(O)CC(C)C (stereo unspecified)
assigned.category: no (0)
--
molecule: CCC(C)(C)C(=O)O[C@H]1C[C@@H](C)C=C2C=C[C@H](C)[C@H](CC[C@@H]3C[C@@H](O)CC(=O)O3)[C@H]21
assigned.category: yes (1)
--
molecule: CCOC(=O)c1ccc(C2CCC(NC[C@H](O)COc3ccc(O)c(NS(C)(=O)=O)c3)CC2)cc1 (stereo partly specified)
assigned.category: yes (1)
--
molecule: Nc1ccc(Nc2ccccc2)cc1
assigned.category: yes (1)
--
molecule: Cc1ccc(O)cc1
assigned.category: no (0)

Q: Please share the test call associated with CC[C@H](C)C(=O)O[C@H]1C[C@@H](C)C=C2C=C[C@H](C)[C@H](CC[C@@H]3C[C@@H](O)CC(=O)O3)[C@H]21 .
Ans: yes (1)

Q: Please share the test call associated with CC1=CC(=O)CC(C)(C)C1 .
Ans: no (0)

Q: Please share the test call associated with CC[C@H]1CC[C@H](NCc2cc3c(cc2OC)[C@H]2C[C@H]2C(=O)N3C)[C@H](c2ccccc2)N1 .
Ans: no (0)

Q: Please share the test call associated with Oc1ccc2c(c1)-c1ccccc1C2 .
Ans: yes (1)

Q: Please share the test call associated with O=c1[nH]c2ccc(S(=O)CCN3CCC(Cc4ccc(F)cc4)CC3)cc2o1 (stereo unspecified) .
Ans: no (0)

Q: Please share the test call associated with Cn1c(=O)cc(Oc2ccc(F)cc2F)c2cnc(NCC(C)(C)O)nc21 .
Ans: no (0)

* * *

# Read-out: Fatty acid synthase (Homo sapiens)
# test: LTEA_HepaRG_FASN: Life Technologies and Expression Analysis (LTEA) Assay for Fatty Acid Synthase (FASN) using HepaRG (AID 2283448)
# study.conditions: mRNA level, 48 h; actives raise or lower the signal
Calls of active or inactive are those of the source. How the source made its calls: active means hit-call score of the fitted dose curve at least 0.9, where 1 is the maximum; inactive means score below 0.9.
Respond with a class label; see active, inactive

Previously resolved entries follow.
molecule: CCOC(=O)COc1ccc2c(c1)CC(NCC(O)c1cccc(Cl)c1)CC2 (centres undefined)
assigned.category: inactive

molecule: C[C@](N)(Cc1ccc(O)c(O)c1)C(=O)O
assigned.category: inactive

molecule: CC(C)=CCCC(C)CCO (centres undefined)
assigned.category: inactive

Q: Please share the test call associated with NC(=O)NO .
Ans: inactive

Q: Please share the test call associated with CC(C)=CCCC(C)=CC=O .
Ans: inactive

* * *

# test: Tanguay_ZF_120hpf_SNOU_legacy: (Legacy) Oregon State University Tanguay Lab 120 Hour Post-fertilization zebrafish Assay for Snout Malformation (AID 2283637)
Results filed as inconclusive are left out. The source made the active and inactive calls. Rule for the calls: active = hit-call score of the fitted dose curve at least 0.9, where 1 is the maximum; inconclusive = response in the unintended direction; inactive = score below 0.9.
readout.label: AC50

Illustrative cases are given below, each with its answer.
entry.smiles: CCOc1cccc(-n2cc(C(=O)N3CCN(c4cc(C(=O)O)c5ccccc5c4)CC3)nc2-c2ccc(C)cc2)c1
observed.measurement: inactive

entry.smiles: CC(C)=CCCC(C)=CC=O
observed.measurement: inactive

entry.smiles: CC(C)CCO
observed.measurement: inactive

entry.smiles: Nc1cccc(N)c1
observed.measurement: inactive

entry.smiles: CC1=CC(=O)CC(C)(C)C1
observed.measurement: inactive

Q: Recall and state the measured AC50 for CCC(C)(C)C(=O)O[C@H]1C[C@@H](C)C=C2C=C[C@H](C)[C@H](CC[C@@H]3C[C@@H](O)CC(=O)O3)[C@H]21 .
Ans: 0.796 µM (active)

* * *

# Read-out: Interleukin-8 (IL8), CXCL8 (gene 3576)
# test: BSK_LPS_IL8: BioMAP Diversity Plus: LPS Assay for Interleukin-8 (IL8) Biomarker Activity (AID 2283078)
# study.conditions: primary human HUVEC with PBMC; actives raise or lower the signal
Calls of active or inactive are those of the source. Rule for the calls: active = hit-call score of the fitted dose curve at least 0.9, where 1 is the maximum; inactive = score below 0.9.
Respond with a class label; see True = active, False = inactive

Previously resolved entries follow.
compound: O=C(CCCCCCCCc1cccnc1)N1CCC(C=C(c2ccccc2)c2ccccc2)CC1
assigned.category: True
--
compound: CCOC(=O)c1ccc(C2CCC(NC[C@H](O)COc3ccc(O)c(NS(C)(=O)=O)c3)CC2)cc1 (stereo not given in full)
assigned.category: True
--
compound: COc1ccc(/C=C/S(=O)(=O)NC(=O)c2ccc(C)cc2Cl)cc1
assigned.category: False
--
compound: CC(C)CCCCCCCOC(=O)CCCCC(=O)OCCCCCCCC(C)C
assigned.category: False
--
compound: O=c1[nH]c2ccc(S(=O)CCN3CCC(Cc4ccc(F)cc4)CC3)cc2o1 (stereo not given)
assigned.category: False

Q: Please share the test call associated with O=c1n(CC2CO2)c(=O)n(CC2CO2)c(=O)n1CC1CO1 (stereo not given) .
Ans: True

Q: Please share the test call associated with CCOc1cccc(-n2cc(C(=O)N3CCN(c4cc(C(=O)O)c5ccccc5c4)CC3)nc2-c2ccc(C)cc2)c1 .
Ans: True

* * *

# tested.target: human RAR-related Orphan Receptor gamma (RORg), RORC (gene 6097)
# test: ATG_RORg_TRANS: Attagene TRANS-FACTORIAL HepG2 Assay for human RAR-related Orphan Receptor gamma (RORg) (AID 2283011)
# Experimental: ATG_TRANS is a cell-based, multiplexed-readout assay that uses HepG2, a human liver cell line, with measurements taken at 24 hours after chemical dosing in a 24-well plate.ATG_RORg_TRANS is one of 30 assay component(s) measured or calculated from the ATG_TRANS assay. […] This assay endpoint, ATG_RORg_TRANS, was analyzed in the positive analysis fitting direction relative to DMSO as the negative control and baseline of activity. […]
Inconclusive results are not listed. The source made the active and inactive calls. How the source made its calls: active means hit-call score of the fitted dose curve at least 0.9, where 1 is the maximum; inconclusive means response in the unintended direction; inactive means score below 0.9.
readout.label: outcome

Illustrative cases are given below, each with its answer.
entry.smiles: CC(=O)c1ccc2c(c1)[C@H](NC(=O)c1ccc(F)cc1)[C@@H](O)C(C)(C)O2
readout.label: outcome
observed.measurement: inactive

entry.smiles: CC(C)CCCCCCCOC(=O)CCCCC(=O)OCCCCCCCC(C)C
readout.label: outcome
observed.measurement: inactive

entry.smiles: CC(C)=CCC/C(C)=C/CO
readout.label: outcome
observed.measurement: inactive

entry.smiles: Nc1nc2ncc(CNc3ccc(C(=O)N[C@@H](CCC(=O)O)C(=O)O)cc3)nc2c(=O)[nH]1
readout.label: outcome
observed.measurement: inactive

Next up:
Q: Recall and state the measured outcome for COC(=O)c1c(Cl)c(Cl)c(C(=O)OC)c(Cl)c1Cl .
Ans: inactive
